# TEST_TARGET: CTXM-15 β-lactamase (Escherichia coli)
# Construct: The β-lactamases were extracted by four cycles of freezing and thawing followed by centrifugation; endogenous in cells
# Sequence (Q9EXV5 29-291): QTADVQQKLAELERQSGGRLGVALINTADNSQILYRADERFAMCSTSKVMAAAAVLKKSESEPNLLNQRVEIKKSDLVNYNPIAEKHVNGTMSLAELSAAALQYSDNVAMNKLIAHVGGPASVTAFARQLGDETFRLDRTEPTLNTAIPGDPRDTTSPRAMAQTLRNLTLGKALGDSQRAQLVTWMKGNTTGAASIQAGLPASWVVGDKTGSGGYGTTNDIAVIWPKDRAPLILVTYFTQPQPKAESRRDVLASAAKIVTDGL
# TEST_DESCRIPTION: biochemical
# ASSAY_CONTEXT: crude enzyme extract, 10 min preincubation at 37° C., nitrocefin 100 μM, PBS pH 7.0; read-out: CTXM-15 IC50 Range
OBSERVED_PROPERTY: IC50

// worked examples, IC50 included
                                   compound  observed_property          result
0  COc1ccc(C(=O)CCC(=O)N[C@@H](Cc2cccc(C(=O)O)c2)B(O)O)cc1 [Example 38]               IC50  100 to 1000 nM
1  CC(CO)Oc1cccc(CC(=O)N[C@@H](Cc2cccc(C(=O)O)c2)B(O)O)c1 (some centres unmarked) [Example 32]               IC50        < 100 nM
2  COc1ccc(CC(=O)N[C@@H](Cc2cccc(C(=O)O)c2)B(O)O)cc1OC [Example 11]               IC50        < 100 nM
3  O=C(Cc1ccc(Cl)cc1)N[C@@H](Cc1cccc(C(=O)O)c1)B(O)O [Example 19]               IC50        < 100 nM
4  O=C(Cc1cccc(Cl)c1)N[C@@H](Cc1cccc(C(=O)O)c1)B(O)O [Example 3]               IC50        < 100 nM
5  O=C(CCc1cccs1)N[C@@H](Cc1cccc(C(=O)O)c1)B(O)O [Example 10]               IC50  100 to 1000 nM
6  COc1ccc(CC(=O)N[C@@H](Cc2cccc(C(=O)O)c2)B(O)O)cc1 [Example 25]               IC50        < 100 nM

Field: next compound
**Q:** Tell me its IC50 on CTXM-15 β-lactamase (Escherichia coli): Cn1c(CC(=O)N[C@@H](Cc2cccc(C(=O)O)c2)B(O)O)cc2ccccc21 [Example 14]
**A:** 100 to 1000 nM
